# tested on: hVDR (Homo sapiens, UniProt P11473)
# Construct: expressed in transfected cells; host or cells: HEK293
# method: VDR transactivation luciferase reporter assay in HEK293 cells (SPP×3-tk-LUC)
# Format: cell-based
# assay conditions: this study, read-out: Transcriptional Activity EC50
property name: EC50 (pM)
Report as a plain number; the unit pM is understood.

Just so you know, measured EC50 for C=C1[C@H](O)CC(=C/C=C2\CCC[C@]3(C)[C@@H]([C@H](C)CC#C[C@@](O)(CC)C45CC6CC(CC(C6)C4)C5)CC[C@@H]23)C[C@H]1O came out at 2300

Just so you know, measured EC50 for C=C1[C@H](O)CC(=C/C=C2\CCC[C@]3(C)[C@@H]([C@H](C)CC#C[C@@](C)(O)C45CC6CC(CC(C6)C4)C5)CC[C@@H]23)C[C@H]1O came out at 200

Just so you know, measured EC50 for C=C1[C@H](O)CC(=C/C=C2\CCC[C@]3(C)[C@@H]([C@H](C)CC#C[C@](O)(CCCC)C45CC6CC(CC(C6)C4)C5)CC[C@@H]23)C[C@H]1O came out at 600

Just so you know, measured EC50 for C=C1[C@H](O)CC(=C/C=C2\CCC[C@]3(C)[C@@H]([C@H](C)CC#C[C@](O)(CC)C45CC6CC(CC(C6)C4)C5)CC[C@@H]23)C[C@H]1O came out at 200

Just so you know, measured EC50 for C=C1[C@H](O)CC(=C/C=C2\CCC[C@]3(C)[C@@H]([C@H](C)CC#C[C@@](O)(CCCC)C45CC6CC(CC(C6)C4)C5)CC[C@@H]23)C[C@H]1O came out at 2600

Just so you know, measured EC50 for C=C1[C@H](O)CC(=C/C=C2\CCC[C@]3(C)[C@@H]([C@H](C)CC#C[C@](C)(O)C45CC6CC(CC(C6)C4)C5)CC[C@@H]23)C[C@H]1O came out at 500

====

# tested on: VDR with SRC-1 (Homo sapiens)
# Sequence (P11473 whole entry): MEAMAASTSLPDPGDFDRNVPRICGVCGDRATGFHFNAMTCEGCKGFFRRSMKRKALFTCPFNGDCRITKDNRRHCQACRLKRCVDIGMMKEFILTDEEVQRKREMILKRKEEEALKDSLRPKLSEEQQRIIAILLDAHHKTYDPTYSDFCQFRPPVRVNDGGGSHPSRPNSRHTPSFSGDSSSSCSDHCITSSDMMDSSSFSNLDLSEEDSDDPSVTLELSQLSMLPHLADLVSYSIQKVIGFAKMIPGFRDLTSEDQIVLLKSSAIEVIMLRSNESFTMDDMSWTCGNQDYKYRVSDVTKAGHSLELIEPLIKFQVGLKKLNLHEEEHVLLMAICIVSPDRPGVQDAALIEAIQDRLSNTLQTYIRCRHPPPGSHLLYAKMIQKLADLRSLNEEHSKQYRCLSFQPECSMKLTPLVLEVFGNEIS
# Sequence (Q15788 595-771 partner limits assumed): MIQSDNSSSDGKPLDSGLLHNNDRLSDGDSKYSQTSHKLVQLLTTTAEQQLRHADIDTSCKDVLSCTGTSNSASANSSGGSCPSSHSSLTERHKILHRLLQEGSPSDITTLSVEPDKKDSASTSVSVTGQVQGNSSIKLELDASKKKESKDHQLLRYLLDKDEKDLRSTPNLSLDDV
# method: Mammalian two-hybrid assay, VDR binding to SRC-1
property name: EC50 (nM)
Report as a plain number; the unit nM is understood.

Just so you know, measured EC50 for C=C1[C@H](O)CC(=C/C=C2\CCC[C@]3(C)[C@@H]([C@H](C)CC#C[C@](C)(O)C45CC6CC(CC(C6)C4)C5)CC[C@@H]23)C[C@H]1O came out at 8.4

Just so you know, measured EC50 for C=C1[C@H](O)CC(=C/C=C2\CCC[C@]3(C)[C@@H]([C@H](C)CC#C[C@@](O)(CCCC)C45CC6CC(CC(C6)C4)C5)CC[C@@H]23)C[C@H]1O came out at 2.4

Just so you know, measured EC50 for C=C1[C@H](O)CC(=C/C=C2\CCC[C@]3(C)[C@@H]([C@H](C)CC#C[C@](O)(CC)C45CC6CC(CC(C6)C4)C5)CC[C@@H]23)C[C@H]1O came out at 1.2
